Tested on: RF strain of HIV (CEM-SS cells)
assay.summary: Cell Culture Anti-HIV Activity (cell viability, formazan)
Format: cell-based
particulars: CEM-SS cells, RF strain of HIV, multiplicity of infection 0.04, 6 days at 37° C., 450 nm; read-out: HIV (CEM Cells) IC50
As shown below, each of these compounds has a reported pIC50 value.
Value format note: pIC50 is -log10 of concentration (mol/L); just state the number.

These solved cases illustrate the format of a correct answer.
CC(C)(C)OC(=O)N[C@@H](Cc1ccccc1)[C@H](O)CNC[C@@H](O)[C@H](Cc1ccccc1)NC(=O)C1(O)CCCC1(C)C (single isomer, unassigned; isomer a) [Compound 321]	6.70
CC1(C)CCCC1(O)C(=O)N[C@@H](Cc1ccccc1)[C@H](O)CNC[C@@H](O)[C@H](Cc1ccccc1)NC(=O)C1(O)CCCC1(C)C (single isomer, unassigned; isomer b) [Compound 337]	6.54
CC(C)(C)OC(=O)N[C@@H](Cc1ccccc1)[C@H](O)CNC[C@@H](O)[C@H](Cc1ccccc1)NC(=O)C(NC(=O)OCc1ccccc1)C(C)(C)CO (single isomer, unassigned; isomer a) [Compound 308]	7.70

Note: attention shifts to another entry.
If you can, please state the reported pIC50 value of CC1(C)CCCC1(O)C(=O)N[C@@H](Cc1ccccc1)[C@H](O)CNC[C@@H](O)[C@H](Cc1ccccc1)NC(=O)C1(O)CCCC1(C)C (single isomer, unassigned; isomer a) [Compound 336] .
7.40

---

tested.system: HIV protease (Human immunodeficiency virus type 1 group M subtype B, UniProt P04585)
Construct: and purified protease
assay.summary: HIV Protease Assay
Format: biochemical
particulars: pH 5.5, 10 μM inhibitor, 4% DMSO, 450 μM substrate, pH 5.5, 30 minutes at 37° C., RP-HPLC; read-out: HIV Protease % Inhibition at 10 μM
Description: An HIV protease standard assay was performed in a 60 μl reaction medium containing 50 mM sodium acetate, pH 5.5, 100 μg/ml bovine serum albumen,450 μM substrate (H2 N-Val-Ser-Gln-Asn-(β-naphthyl-alanine)-Pro-Val-Ile-OH), and purified protease. The reaction medium was incubated for 30 minutes at 37° C., quenched by the addition of 140 μl 5% H3 PO4, then analyzed by reverse phase HPLC using UV220 detection. In a typical control assay, 7% of the substrate was hydrolyzed. […]
Label rule, in plain words: inhibition at 10 µM of 90% and up is label 1, under 90% is label 0.

Would you please look over these solved cases?
CC(C)(C)OC(=O)N[C@@H](Cc1ccccc1)[C@H](O)CNC[C@@H](O)[C@H](Cc1ccc(OCCc2ccccn2)cc1)NC(=O)OC(C)(C)C [Compound 178]	label 1
CC(C)(C)OC(=O)N[C@@H](Cc1ccccc1)[C@H](O)CNC[C@@H](O)[C@H](Cc1ccccc1)NC(=O)COc1ccccc1 (relative stereo) [Compound 72]	label 0
CC(C)(C)OC(=O)N[C@@H](Cc1ccccc1)[C@@H](O)CNCC(O)[C@@H](Cc1ccccc1)NC(=O)OC(C)(C)C (some centres unmarked) [Compound 27]	label 0
CC(C)(C)OC(=O)N[C@@H](Cc1ccccc1)[C@H](O)CNC[C@@H](O)[C@H](Cc1ccncc1)NC(=O)OC(C)(C)C [Compound 30]	label 1
CC(C)[C@H](NC(=O)OCc1nc(-c2ccccc2)c[nH]1)C(=O)N[C@@H](Cc1ccccc1)[C@H](O)CNC[C@@H](O)[C@H](Cc1ccccc1)NC(=O)OC(C)(C)C (relative stereo) [Compound 265]	label 1

Could you now look at the following compound, please?
Decide: inhibition at 10 µM of CC(C)[C@H](NC(=O)[C@H](O)Cc1ccccc1)C(=O)N[C@@H](Cc1ccccc1)[C@H](O)CNC[C@@H](O)[C@H](Cc1ccccc1)NC(=O)OC(C)(C)C [Compound 78] >= 90%?
label 1

---

tested.system: HIV protease (Human immunodeficiency virus type 1 group M subtype B)
Construct: and purified protease
assay.summary: HIV Protease Assay
Type: biochemical
particulars: pH 5.5, 10 μM inhibitor, 4% DMSO, 450 μM substrate, pH 5.5, 30 minutes at 37° C., RP-HPLC; read-out: HIV Protease % Inhibition at 10 μM
Known inhibition at 10 µM of a selection of compounds
Give a bare numeral; the unit % is implied.

The following compounds have reported results that may help.
CC(C)(C)OC(=O)N[C@@H](Cc1ccccc1)[C@H](O)CNC[C@@H](O)[C@H](Cc1ccccc1)NC(=O)OCc1ncc[nH]1 [Compound 268]	94
CC(C)(C)OC(=O)N[C@@H](Cc1ccccc1)[C@H](O)CNC[C@@H](O)[C@H](Cc1ccccc1)NC(=O)SC(C)(C)C [Compound 184]	99
CC(C)(C)OC(=O)N[C@@H](Cc1ccccc1)[C@H](O)CNC[C@@H](O)[C@H](Cc1ccccc1)NC(=O)C1(NC(=O)OCc2ccccc2)CCCC1 [Compound 87]	92
CC(C)(C)OC(=O)N[C@@H](Cc1ccccc1)[C@H](O)CNC[C@@H](O)[C@H](Cc1ccccc1)NC(=O)OC1CCc2ccccc21 (stereo partly drawn) [Compound 144]	88
CC(C)(C)OC(=O)N[C@@H](Cc1ccccc1)[C@H](O)CNC[C@@H](O)[C@H](Cc1ccccc1)NC(=O)O[C@@H]1CCc2ccccc21 [Compound 145]	95

Form: Entry = CC(C)(C)OC(=O)N[C@@H](Cc1ccccc1)[C@H](O)CNC[C@@H](O)[C@H](Cc1ccccc1)NC(=O)C1c2ccccc2CC1O (stereo partly drawn) [Compound 237] | System = HIV protease (Human immunodeficiency virus type 1 group M subtype B) | inhibition at 10 µM = ____
54

---

Tested on: RF strain of HIV (CEM-SS cells)
assay.summary: Cell Culture Anti-HIV Activity (cell viability, formazan)
Assay type: cell-based
particulars: Human immunodeficiency virus 1, CEM-SS, 144 h, read-out: HIV (CEM Cells) IC50 (μM)
quantity.kind: IC50 (µM)
Record the value in µM, omitting the unit from your answer.

Using the record for CC(C)(C)OC(=O)N[C@@H](Cc1ccccc1)[C@H](O)CN(C[C@@H](O)[C@H](Cc1ccccc1)NC(=O)OC(C)(C)CO)C(=O)OCC[Si](C)(C)C [Compound 164] , report its IC50.
0.04

---

tested.system: HIV protease (Human immunodeficiency virus type 1 group M subtype B)
Construct: and purified protease
assay.summary: HIV Protease Assay
Format: biochemical
particulars: pH 5.5, 10 μM inhibitor, 4% DMSO, 450 μM substrate, pH 5.5, 30 minutes at 37° C., RP-HPLC; read-out: HIV Protease % Inhibition at 10 μM
Here, each record is paired with measured inhibition at 10 µM data.
Express it in %; write the number only.

Below: 4 molecules and their reported inhibition at 10 µM.
CC(C)(C)OC(=O)N[C@@H](Cc1ccccc1)[C@H](O)CNC[C@@H](O)[C@H](Cc1ccccc1)NC(=O)OC(C)(C)CCO	97
CC(C)(C)OC(=O)N1Cc2ccccc2C[C@H]1[C@@H](O)CNC[C@H](O)[C@@H]1Cc2ccccc2CN1C(=O)OC(C)(C)C	1
CC(C)(C)OC(=O)N[C@@H](Cc1ccccc1)[C@H](O)CNC[C@@H](O)[C@H](Cc1ccccc1)NC(=O)OC1CCS(=O)(=O)C1 (some centres unmarked)	96
CC(C)[C@H](NC(=O)C(N)Cc1ccccc1O)C(=O)N[C@@H](Cc1ccccc1)[C@H](O)CNC[C@@H](O)[C@H](Cc1ccccc1)NC(=O)OC(C)(C)C (relative stereo)	99

Turning now to a further record.
Reported inhibition at 10 µM for CNC(=O)N(C)[C@H](C(=O)N[C@@H](Cc1ccccc1)[C@H](O)CNC[C@@H](O)[C@H](Cc1ccccc1)NC(=O)OC(C)(C)C)C(C)(C)C (relative stereo) : what is it?
99

---

tested.system: HIV protease (Human immunodeficiency virus type 1 group M subtype B, UniProt P04585)
Construct: and purified protease
assay.summary: HIV Protease Assay
Type: biochemical
particulars: pH 5.5, 10 μM inhibitor, 4% DMSO, 450 μM substrate, pH 5.5, 30 minutes at 37° C., RP-HPLC; read-out: HIV Protease % Inhibition at 10 μM
quantity.kind: inhibition at 10 µM (%)
Only the number, expressed in %, is required.

Recorded inhibition at 10 µM, per entry:
CC(C)(C)OC(=O)N[C@@H](Cc1ccccc1)[C@H](O)CNC[C@@H](O)[C@H](Cc1ccccc1)NC(=O)[C@H](O)c1ccccc1 [Compound 377]	95
CC(C)C[C@H](NC(=O)OC(C)(C)C)C(O)CN(Cc1ccccc1)CC(O)[C@H](CC(C)C)NC(=O)OC(C)(C)C (stereo partly drawn) [Compound 196]	6
COC(=O)N[C@H](C(=O)N[C@@H](Cc1ccccc1)[C@H](O)CNC[C@@H](O)[C@H](Cc1ccccc1)NC(=O)OC(C)(C)CO)C(C)(C)C (relative stereo) [Compound 359]	99

inhibition at 10 µM for C[C@H](O)C(C)(C)OC(=O)N[C@@H](Cc1ccccc1)[C@H](O)CNC[C@@H](O)[C@H](Cc1ccccc1)NC(=O)OC(C)(C)C [Compound 232] ?
99

Looking for the measured inhibition at 10 µM of CC(C)(C)OC(=O)N[C@@H](Cc1ccccc1)[C@H](O)CN[C@H](Cc1ccccc1)[C@@H](O)CNC(=O)OCc1ccccc1 [Compound 185] , can you help?
5
